- experimental.system: ΔF508-CFTR (Homo sapiens, UniProt P13569, DEL508-508)
- Construct: host or cells: CFBE41o-, doxycycline-inducible
- Sequence (P13569 with tags, fused parts or gaps DEL508-508): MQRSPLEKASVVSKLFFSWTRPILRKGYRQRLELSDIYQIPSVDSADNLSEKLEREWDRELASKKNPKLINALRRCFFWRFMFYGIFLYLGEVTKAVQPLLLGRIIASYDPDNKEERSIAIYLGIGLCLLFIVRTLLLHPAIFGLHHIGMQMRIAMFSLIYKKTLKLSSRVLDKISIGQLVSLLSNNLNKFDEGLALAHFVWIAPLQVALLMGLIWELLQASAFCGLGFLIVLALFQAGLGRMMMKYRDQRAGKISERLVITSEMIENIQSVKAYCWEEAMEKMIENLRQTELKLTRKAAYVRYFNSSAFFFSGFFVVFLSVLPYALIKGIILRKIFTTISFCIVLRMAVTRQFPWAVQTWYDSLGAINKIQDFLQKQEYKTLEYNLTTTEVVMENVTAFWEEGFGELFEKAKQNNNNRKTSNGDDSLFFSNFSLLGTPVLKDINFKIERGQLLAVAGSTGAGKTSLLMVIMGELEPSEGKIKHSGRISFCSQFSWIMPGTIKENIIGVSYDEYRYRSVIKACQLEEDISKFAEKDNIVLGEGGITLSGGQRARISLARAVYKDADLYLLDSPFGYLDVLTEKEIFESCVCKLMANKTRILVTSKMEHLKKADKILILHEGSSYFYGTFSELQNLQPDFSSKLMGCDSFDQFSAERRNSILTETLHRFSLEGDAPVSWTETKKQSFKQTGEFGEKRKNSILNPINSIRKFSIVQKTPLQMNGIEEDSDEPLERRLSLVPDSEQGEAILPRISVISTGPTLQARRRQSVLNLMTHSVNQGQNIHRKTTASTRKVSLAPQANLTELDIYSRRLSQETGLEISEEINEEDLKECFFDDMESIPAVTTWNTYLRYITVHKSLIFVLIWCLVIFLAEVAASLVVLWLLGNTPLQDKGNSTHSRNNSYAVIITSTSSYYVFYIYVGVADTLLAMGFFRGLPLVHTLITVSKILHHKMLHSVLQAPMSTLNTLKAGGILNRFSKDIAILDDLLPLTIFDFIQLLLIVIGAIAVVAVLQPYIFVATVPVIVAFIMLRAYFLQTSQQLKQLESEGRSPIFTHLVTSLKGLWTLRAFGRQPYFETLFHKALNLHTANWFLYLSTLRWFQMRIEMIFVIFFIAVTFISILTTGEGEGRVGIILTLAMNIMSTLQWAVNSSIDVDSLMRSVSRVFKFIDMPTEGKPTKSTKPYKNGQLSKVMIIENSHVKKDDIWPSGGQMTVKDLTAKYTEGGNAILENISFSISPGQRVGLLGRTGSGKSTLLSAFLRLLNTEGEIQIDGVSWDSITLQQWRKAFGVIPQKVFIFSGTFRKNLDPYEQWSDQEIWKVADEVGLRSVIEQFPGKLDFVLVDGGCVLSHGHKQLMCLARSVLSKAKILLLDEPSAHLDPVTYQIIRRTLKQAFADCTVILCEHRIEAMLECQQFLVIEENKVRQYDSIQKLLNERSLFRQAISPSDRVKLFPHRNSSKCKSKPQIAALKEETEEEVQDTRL
- experimental.protocol: CFTR cell surface levels using HRP-tagged ΔF508-CFTR expressing CFBE cells, in the presence of a co-corrector
- Format: cell-based
- test.parameters: HRP-tagged ΔF508-CFTR CFBE cells, in the presence of 3 μM co-corrector; read-out: EC50
pEC50: −log10 of the molar value.
quantity.kind: pEC50

• COCCS(=O)(=O)NC(=O)c1cc(N2CCC(CCN3CCOCC3)CC2)c2c(C3CCC3)nn(-c3ccc(F)cc3)c2n1 [Compound 415] = 7.16
• CC(C)N1CCC(c2cc(C(=O)NS(C)(=O)=O)nc3c2c(C2CCC2)nn3-c2ccc(F)cc2)CC1 [Compound 611] = 5.58
• CCS(=O)(=O)NC(=O)c1cc(N2CCCCC2)c2c(C(C)C)nn(-c3cccc(C)c3)c2n1 [Compound 102] = 6.27
• CC(C)c1nn(-c2ccnc(N3CCOCC3)c2)c2nc(C(=O)NS(C)(=O)=O)cc(-c3ccc(N4CCC(C#N)CC4)nc3)c12 [Compound 227] = 6.51

Data provenance: patent US10259810B2
